test system: Aeromonas 1 (Aeromonas sp. AE235); assay: relative growth (AUC of 72 h growth curve relative to DMSO control, dAUC) (ratio); higher = more growth (less inhibition), active = hit call of the paper; details: 20 µM
ASSAY READOUT: relative growth

MOLECULE: COCC(=O)N(c1c(C)cccc1C)C(C)C(=O)OC (centres undefined)
ENDPOINT VALUE: 1.03
//
MOLECULE: COP(=S)(OC)SCN1C(=O)c2ccccc2C1=O
ENDPOINT VALUE: 1.02
//
MOLECULE: O=C1C2CC=CCC2C(=O)N1SC(Cl)(Cl)Cl (centres undefined)
ENDPOINT VALUE: 0.905
//
MOLECULE: CCNC(=O)NC(=O)/C(C#N)=N/OC
ENDPOINT VALUE: 0.983
//
MOLECULE: Cc1nc(N(C)C)nc(OC(=O)N(C)C)c1C
ENDPOINT VALUE: 0.991
//
MOLECULE: CNC(=O)ON=C(C)SC
ENDPOINT VALUE: 0.953
//
MOLECULE: CO/C=C(/C(=O)OC)c1ccccc1Oc1cc(Oc2ccccc2C#N)ncn1
ENDPOINT VALUE: 0.938
//
MOLECULE: O=[N+]([O-])/N=C1\NCCN1Cc1ccc(Cl)nc1
ENDPOINT VALUE: 0.99
//
MOLECULE: CNC(=O)c1cc(C#N)cc(C)c1NC(=O)c1cc(Br)nn1-c1ncccc1Cl
ENDPOINT VALUE: 0.986
